Data credit: paper PMC7238409

system: nNHDF cells; assay: Annexin V/Propidiumiodide apoptosis/necrosis assay, flow cytometry; type: cell-based, human
Assignment: determine reported quadrant number upper right, PI / Annexin V plot for the given compounds.
Lab note: jot the number down without any unit.

Request: Which value of quadrant number upper right, PI / Annexin V plot has been reported for O=C1C=C(O)C(=O)c2ccccc21 [HNQ, 2-hydroxy-1,4-naphtoquinone] in the records?
Result: 2.61

Request: Which value of quadrant number upper right, PI / Annexin V plot has been reported for CCCOC(=O)c1ccc(O)cc1 [PP, propyl parabene] in the records?
Result: 1.77

Request: Which value of quadrant number upper right, PI / Annexin V plot has been reported for CCOC(=O)c1ccc(O)cc1 [EP, ethyl parabene] in the records?
Result: 1.47

Request: Which value of quadrant number upper right, PI / Annexin V plot has been reported for COC(=O)c1ccc(O)cc1 [MP, methyl parabene] in the records?
Result: 1.42

Request: Which value of quadrant number upper right, PI / Annexin V plot has been reported for CCCCOC(=O)c1ccc(O)cc1 [BP, butyl parabene] in the records?
Result: 1.38

====

test system: nNHDF cells; experiment: Annexin V/Propidiumiodide apoptosis/necrosis assay, flow cytometry; type: cell-based, human
# y = quadrant number lower right, PI / Annexin V plot below 5 (exclusive); n = quadrant number lower right, PI / Annexin V plot at/above 5

Request: Could you please tell me whether quadrant number lower right, PI / Annexin V plot recorded for CCCOC(=O)c1ccc(O)cc1 is less than 5?
Result: y

Request: Could you please tell me whether quadrant number lower right, PI / Annexin V plot recorded for COC(=O)c1ccc(O)cc1 is less than 5?
Result: n

Request: Could you please tell me whether quadrant number lower right, PI / Annexin V plot recorded for CCOC(=O)c1ccc(O)cc1 is less than 5?
Result: n

Request: Could you please tell me whether quadrant number lower right, PI / Annexin V plot recorded for CCCCOC(=O)c1ccc(O)cc1 is less than 5?
Result: y

Request: Could you please tell me whether quadrant number lower right, PI / Annexin V plot recorded for O=C1C=C(O)C(=O)c2ccccc21 [HNQ, 2-hydroxy-1,4-naphtoquinone] is less than 5?
Result: y

====

assay: Nanoparticle tracking analysis (NTA) of TiO2 NPs after incubation with MLP ingredients; type: physicochemical; conditions: 0.1 mg/mL TiO2 NPs + 0.1 mg/mL MLP ingredient, 60 min, diluted 1:100 in water
Assignment: determine reported particle diameter of TiO2 NPs, D50 for the given compounds.
Give just the numeric value; nm need not be written.

Request: Which value of particle diameter of TiO2 NPs, D50 has been reported for O=C1C=C(O)C(=O)c2ccccc21 [HNQ, 2-hydroxy-1,4-naphtoquinone] in the records?
Result: 141

Request: Which value of particle diameter of TiO2 NPs, D50 has been reported for CCOC(=O)c1ccc(O)cc1 in the records?
Result: 122

Request: Which value of particle diameter of TiO2 NPs, D50 has been reported for CC(C=O)Cc1ccc(C(C)(C)C)cc1 (stereo not shown) in the records?
Result: 127

Request: Which value of particle diameter of TiO2 NPs, D50 has been reported for Nc1ccc(N)cc1 in the records?
Result: 129

Request: Which value of particle diameter of TiO2 NPs, D50 has been reported for CCCOC(=O)c1ccc(O)cc1 in the records?
Result: 119

Request: Which value of particle diameter of TiO2 NPs, D50 has been reported for COC(=O)c1ccc(O)cc1 in the records?
Result: 122

Request: Which value of particle diameter of TiO2 NPs, D50 has been reported for CCCCOC(=O)c1ccc(O)cc1 in the records?
Result: 122
